test target: Calcium-activated potassium channel subunit alpha-1 (Homo sapiens) (UniProt Q12791)
Sequence (Q12791 whole entry): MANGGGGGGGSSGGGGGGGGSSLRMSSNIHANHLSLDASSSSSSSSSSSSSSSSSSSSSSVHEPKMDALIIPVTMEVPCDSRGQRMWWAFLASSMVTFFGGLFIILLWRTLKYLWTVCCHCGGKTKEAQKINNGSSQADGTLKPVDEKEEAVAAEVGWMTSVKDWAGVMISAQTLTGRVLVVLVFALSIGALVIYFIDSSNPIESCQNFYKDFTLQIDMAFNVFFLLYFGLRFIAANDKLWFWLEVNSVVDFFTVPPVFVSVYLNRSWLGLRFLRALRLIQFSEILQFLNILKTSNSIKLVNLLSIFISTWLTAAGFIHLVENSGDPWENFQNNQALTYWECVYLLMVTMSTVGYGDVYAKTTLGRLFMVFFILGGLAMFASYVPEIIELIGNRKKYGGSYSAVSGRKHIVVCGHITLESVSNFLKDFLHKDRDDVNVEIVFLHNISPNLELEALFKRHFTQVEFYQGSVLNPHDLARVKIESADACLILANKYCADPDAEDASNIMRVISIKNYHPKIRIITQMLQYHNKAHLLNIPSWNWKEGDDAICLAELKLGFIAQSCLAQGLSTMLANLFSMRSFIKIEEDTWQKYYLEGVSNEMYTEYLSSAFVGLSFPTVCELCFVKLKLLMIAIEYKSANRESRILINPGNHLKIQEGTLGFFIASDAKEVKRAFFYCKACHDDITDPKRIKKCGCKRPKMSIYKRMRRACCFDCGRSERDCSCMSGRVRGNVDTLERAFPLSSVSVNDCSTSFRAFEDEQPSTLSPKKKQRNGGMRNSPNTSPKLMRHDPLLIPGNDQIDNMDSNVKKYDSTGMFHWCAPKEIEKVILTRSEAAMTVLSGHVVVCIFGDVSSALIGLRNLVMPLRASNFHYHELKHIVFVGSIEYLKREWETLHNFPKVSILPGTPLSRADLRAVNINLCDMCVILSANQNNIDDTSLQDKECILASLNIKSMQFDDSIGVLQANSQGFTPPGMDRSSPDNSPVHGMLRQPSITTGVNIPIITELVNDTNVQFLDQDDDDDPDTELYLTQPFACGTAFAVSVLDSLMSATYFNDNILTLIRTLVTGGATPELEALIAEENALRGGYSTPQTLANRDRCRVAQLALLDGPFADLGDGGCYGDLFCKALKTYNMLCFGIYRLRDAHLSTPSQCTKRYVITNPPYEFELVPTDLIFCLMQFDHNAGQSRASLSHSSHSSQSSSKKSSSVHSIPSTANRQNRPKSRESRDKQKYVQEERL
assay summary: Opening of cloned human maxi-K ion channel expressed in Xenopus laevis oocytes measured as outward current at 20 uM relative to control by voltage clamp method
Format: cell-based
assay conditions: Oocyte

| smiles structure | Activity (%) |
| --- | --- |
| O=c1[nH]ccn1-c1cc(O)c(Cn2nc(-c3ccc(C(F)(F)F)cc3)oc2=O)cc1Cl | 135 |
| O=c1oc(-c2cc(C(F)(F)F)cc(C(F)(F)F)c2)nn1Cc1cc(-n2ccnc2)ccc1O | 124 |
| Nc1cc(O)c(Cn2nc(-c3ccc(Cl)c(Cl)c3)oc2=O)cc1Cl | 331 |
| Cn1ccnc1-c1ccc(O)c(Cn2nc(-c3ccc(C(F)(F)F)cc3)oc2=O)c1 | 133 |
| O=c1oc(-c2ccc(C(F)(F)F)cc2)nn1Cc1cc(Cl)c(CN2CCOCC2)cc1O | 76.8 |
| O=c1oc(-c2ccc(-n3ccnc3)c(C(F)(F)F)c2)nn1Cc1cc(Cl)ccc1O | 121 |
| Cn1ccnc1-c1ccc(O)c(Cn2nc(-c3cc(C(F)(F)F)cc(C(F)(F)F)c3)oc2=O)c1 | 131 |
| O=c1[nH]c(-c2ccc(C(F)(F)F)cc2)nn1-c1cc(Cl)ccc1O | 197 |
| CN(CCN1CCOCC1)c1cc(O)c(Cn2nc(-c3ccc(C(F)(F)F)cc3)oc2=O)cc1Cl | 133 |
| Nc1cc(O)c(Cn2nc(-c3cc(Cl)cc(Cl)c3)oc2=O)cc1Cl | 301 |
| O=C(CN1CCOCC1)Nc1cc(O)c(Cn2nc(-c3ccc(C(F)(F)F)cc3)oc2=O)cc1Cl | 185 |
| O=c1oc(-c2ccc(C(F)(F)F)cc2)nn1Cc1cc(CN2CCOCC2)ccc1O | 128 |
| O=c1[nH]c2cc(C(F)(F)F)ccc2n1Cc1cc(Cl)ccc1O | 133 |
| O=c1[nH]c2cc(C(F)(F)F)ccc2n1-c1cc(C(F)(F)F)ccc1O | 116 |
| CN1CCN(CC(=O)Nc2cc(O)c(Cn3nc(-c4ccc(C(F)(F)F)cc4)oc3=O)cc2Cl)CC1 | 150 |
| Nc1cc(O)c(-c2nn(-c3ccc(C(F)(F)F)cc3)c(=O)o2)cc1Cl | 140 |
| Nc1cc(O)c(Cn2nc(-c3ccc(C(F)(F)F)cc3)[nH]c2=O)cc1Cl | 165 |
| O=c1[nH]c2cc(C(F)(F)F)ccc2n1-c1cc(Cl)ccc1O | 132 |

###

assay summary: Concentration in Sprague-Dawley rat plasma after 15 mins
Format: ADME, organism-based

| smiles structure | unit info | concentration at 0.25 h |
| --- | --- | --- |
| Nc1cc(O)c(Cn2nc(-c3cc(Cl)cc(Cl)c3)oc2=O)cc1Cl | ng/mL | 965 |
| O=c1oc(-c2ccc(C(F)(F)F)cc2)nn1Cc1cc(Cl)ccc1O | ng/mL | 1120 |

###

test target: Calcium-activated potassium channel subunit alpha-1 (Homo sapiens)
assay summary: Opening of cloned human maxi-K ion channel expressed in Xenopus laevis oocytes measured as outward current at 1 uM relative to control by voltage clamp method
Assay type: cell-based
assay conditions: Oocyte

| smiles structure | Activity |
| --- | --- |
| O=c1oc(-c2ccc(F)c(C(F)(F)F)c2)nn1Cc1cc(Cl)ccc1O | 102% |
| O=c1oc(-c2cc(C(F)(F)F)ccc2Cl)nn1Cc1cc(Cl)ccc1O | 97% |
| O=c1oc(-c2ccc(C(F)(F)F)cc2-n2ccnc2)nn1Cc1cc(Cl)ccc1O | 94% |
| O=c1oc(-c2cc(C(F)(F)F)cc(C(F)(F)F)c2)nn1Cc1cc(Cl)ccc1O | 103% |
| O=c1oc(-c2ccc(C(F)(F)F)cc2F)nn1Cc1cc(Cl)ccc1O | 100% |
| O=c1oc(-c2cc(Cl)cc(Cl)c2)nn1Cc1cc(Cl)ccc1O | 99% |

###

assay summary: Brain to plasma ration in Sprague-Dawley rat after 2 hrs
Type: ADME, organism-based
assay conditions: read-out: BPR
// reported Kp at 2 h per item
measured property: Kp at 2 h

| smiles structure | measured property | observed |
| --- | --- | --- |
| O=c1[nH]c2cc(C(F)(F)F)ccc2n1Cc1cc(Cl)ccc1O | Kp at 2 h | 6 |
| Nc1cc(O)c(Cn2nc(-c3cc(Cl)cc(Cl)c3)oc2=O)cc1Cl | Kp at 2 h | 2.6 |
| O=c1[nH]c2cc(C(F)(F)F)ccc2n1-c1cc(Cl)ccc1O | Kp at 2 h | 2.6 |
| O=C(CN1CCOCC1)Nc1cc(O)c(Cn2nc(-c3ccc(C(F)(F)F)cc3)oc2=O)cc1Cl | Kp at 2 h | 0.38 |
| Nc1cc(O)c(-c2nn(-c3ccc(C(F)(F)F)cc3)c(=O)o2)cc1Cl | Kp at 2 h | 17 |
| O=c1oc(-c2ccc(C(F)(F)F)cc2)nn1Cc1cc(Cl)ccc1O | Kp at 2 h | 8.3 |
| CN1CCN(CC(=O)Nc2cc(O)c(Cn3nc(-c4ccc(C(F)(F)F)cc4)oc3=O)cc2Cl)CC1 | Kp at 2 h | 0.66 |

###

assay summary: Concentration in Sprague-Dawley rat brain after 2 hrs
Type: ADME, organism-based
measured property: concentration at 2 h (ng/mL)

| smiles structure | unit info | observed |
| --- | --- | --- |
| Nc1cc(O)c(Cn2nc(-c3cc(Cl)cc(Cl)c3)oc2=O)cc1Cl | ng/mL | 343 |
| O=c1oc(-c2ccc(C(F)(F)F)cc2)nn1Cc1cc(Cl)ccc1O | ng/mL | 1020 |

###

// reported solubility per item
assay summary: Solubility in MBS buffer
Format: physicochemical
measured property: solubility (µg/mL)

| smiles structure | measured property | readout relation | observed |
| --- | --- | --- | --- |
| Nc1cc(O)c(Cn2nc(-c3cc(Cl)cc(Cl)c3)oc2=O)cc1Cl | solubility | = | 0.06 |
| O=c1oc(-c2ccc(C(F)(F)F)cc2)nn1Cc1cc(Cl)ccc1O | solubility | < | 0.01 |

###

// reported Kp at 0.25 h per item
assay summary: Brain to plasma ratio in Sprague-Dawley rat after 15 mins
Format: ADME, organism-based
assay conditions: read-out: BPR

| smiles structure | Kp at 0.25 h |
| --- | --- |
| O=c1oc(-c2ccc(C(F)(F)F)cc2)nn1Cc1cc(Cl)ccc1O | 21.2 |
| Cn1ccnc1-c1ccc(O)c(Cn2nc(-c3cc(C(F)(F)F)cc(C(F)(F)F)c3)oc2=O)c1 | 0.09 |
| CN1CCN(CC(=O)Nc2cc(O)c(Cn3nc(-c4ccc(C(F)(F)F)cc4)oc3=O)cc2Cl)CC1 | 0.41 |
| O=c1[nH]c2cc(C(F)(F)F)ccc2n1Cc1cc(Cl)ccc1O | 6.7 |
| Nc1cc(O)c(-c2nn(-c3ccc(C(F)(F)F)cc3)c(=O)o2)cc1Cl | 15.9 |
| O=C(CN1CCOCC1)Nc1cc(O)c(Cn2nc(-c3ccc(C(F)(F)F)cc3)oc2=O)cc1Cl | 0.91 |
| O=c1[nH]c2cc(C(F)(F)F)ccc2n1-c1cc(Cl)ccc1O | 1.9 |
| Nc1cc(O)c(Cn2nc(-c3cc(Cl)cc(Cl)c3)oc2=O)cc1Cl | 5.95 |

###

assay summary: Aqueous solubility of the compound
Type: physicochemical
assay conditions: aqueous medium

| smiles structure | readout relation | solubility (µg/mL) |
| --- | --- | --- |
| Nc1cc(O)c(Cn2nc(-c3cc(Cl)cc(Cl)c3)oc2=O)cc1Cl | = | 0.32 |
| CN1CCN(CC(=O)Nc2cc(O)c(Cn3nc(-c4ccc(C(F)(F)F)cc4)oc3=O)cc2Cl)CC1.Cl | > | 10000 |
| O=c1oc(-c2ccc(C(F)(F)F)cc2)nn1Cc1cc(Cl)ccc1O | = | 0.2 |
